assay: The drug is tested on Z-011 corresponding to mouse gut metagenome with ENA study accession number: PRJEB37062 and ENA sample accession number: ERS12561811 for biotransformation under anaerobic condition. The drug concentrations were measured over 9 timepoints collected between 0 and 24 hours of incubation by liquid-chromatography-coupled mass spectrometry (LC–MS); settings: 2 µM; further: call rule not given here
Quantity Name: Bacterial Biotransformation

1. COC(=O)C(c1ccccc1)C1CCCCN1 (centres undefined) [METHYLPHENIDATE]; Compound NOT metabolized
2. CCCCCNC(=N)N/N=C/c1c[nH]c2ccc(OC)cc12.O=C(O)/C=C\C(=O)O [TEGASEROD MALEATE]; Compound NOT metabolized
3. C[C@]12CCC(=O)C=C1[C@@H]1C[C@@H]1[C@H]1[C@@H]3[C@@H]4C[C@@H]4[C@@]4(CCC(=O)O4)[C@@]3(C)CC[C@@H]12; Compound NOT metabolized
4. C=C[C@H]1CN2CC[C@H]1C[C@H]2[C@H](O)c1ccnc2ccc(OC)cc12.C=C[C@H]1CN2CC[C@H]1C[C@H]2[C@H](O)c1ccnc2ccc(OC)cc12.O.O.O=S(=O)(O)O [QUININE SULFATE]; Compound NOT metabolized
